Assay: In vitro inhibition of PAF-induced platelet aggregation in male rabbits
// pIC50 lookup, one value per entry
Recall that pIC50 is obtained by taking minus log10 of the concentration measured in molar.

Here is how some compounds turned out for pIC50.
compound="Cc1ncccc1C(C#N)N1CCN(C(=O)CC(C)(O)c2ccccc2)CC1 (centres undefined)" measured_result=7.44
compound="Cc1ncccc1C(C#N)N1CCN(C(=O)CC(NS(C)(=O)=O)c2ccccc2)CC1 (centres undefined)" measured_result=7.68
compound="CO/N=C(/C)C(c1cccnc1C)N1CCN(C(=O)CC(c2ccccc2)c2ccccc2)CC1 (centres undefined)" measured_result=5.11
compound="Cc1ncccc1C(C#N)N1CCN(C(=O)/C=C(\\c2ccccc2)C(F)(F)F)CC1 (centres undefined)" measured_result=7.26
compound="Cc1ncccc1C(C#N)N1CCN(C(=O)CON=C(c2ccccc2)c2ccccc2)CC1 (centres undefined)" measured_result=7.06
compound="Cc1ncccc1C(C#N)N1CCN(C(=O)CC(O)(c2ccccc2)c2cccnc2)CC1 (centres undefined)" measured_result=7.49

# input Look at this compound and give its reported pIC50. Cc1ncccc1C(C#N)N1CCN(C(=O)CC(NC(=O)c2ccc[nH]c2=O)c2ccccc2)CC1 (centres undefined)
# output 7.54

# input Sample Cc1ncccc1C(C#N)N1CCN(C(=O)CC(NC(=O)c2cnccn2)c2ccccc2)CC1 (centres undefined) — what was its pIC50?
# output 6.09

# input Given the compound Cc1ncccc1C(C#N)N1CCN(C(=O)CC(NC(=O)c2ccoc2)c2ccccc2)CC1 (centres undefined) , what is its reported pIC50?
# output 5.59

# input Quick one: pIC50 for CCOC(=O)C(c1cccnc1C)N1CCN(C(=O)CC(c2ccccc2)c2ccccc2)CC1 (centres undefined) ?
# output 4.81

# input Which measured pIC50 value corresponds to CCOC(=O)C(CC(=O)N1CCN(C(C#N)c2cccnc2C)CC1)(c1ccccc1)c1ccccc1 (centres undefined) ?
# output 7.34
